The measurements presented in this section are drawn from paper PMC12304826.

- TEST_SYSTEM: human cathepsin B (Homo sapiens, UniProt P07858)
- Construct: purchased Calbiochem, Darmstadt, Germany
- PROCEDURE_SUMMARY: Cathepsin B inhibition assay (chromogenic substrate Cbz-Arg-Arg-pNA)
- Assay type: biochemical
- EXPERIMENTAL_CONTEXT: 1 h, pH 6, five inhibitor concentrations, duplicates, 60 min progress curves, 500 µM Cbz-Arg-Arg-pNA, pH 6.0, 37 °C; read-out: k inac/K i ± SE, second-order rate constant of enzyme inactivation, cathepsin B
Provide the recorded kinact/KI for the entries that follow.

Quick one: give measured kinact/KI for CC(C)CC(NC(=O)Oc1ccc(Cl)c(NC(=O)C(c2ccccc2)c2ccccc2)c1)C(=O)N1CCCC1C(=O)O (stereo not shown)
3830 M⁻¹ s⁻¹

Complete the entry with kinact/KI for CC(C)CC(NC(=O)Oc1ccc(NC(=O)C(c2ccccc2)c2ccccc2)c(Cl)c1)C(=O)NC(Cc1ccccc1)C(=O)O (stereo not shown)
11300 M⁻¹ s⁻¹

Consider the compound CC(C)CC(NC(=O)Oc1ccc(NC(=O)C(c2ccccc2)c2ccccc2)c(Br)c1)C(=O)N1CCCC1C(=O)O (stereo not shown) . State its measured kinact/KI.
6000 M⁻¹ s⁻¹

Find the measured kinact/KI of O=C(NC(CC1CCCCC1)C(=O)NC(Cc1ccccc1)C(=O)O)Oc1ccc(NC(=O)C(Cc2ccccc2)Cc2ccccc2)c(Cl)c1 (stereo not shown) and report it.
23600 M⁻¹ s⁻¹

* * *

- TEST_SYSTEM: human cathepsin S (Homo sapiens, UniProt P25774)
- Construct: purchased Enzo Life Sciences, Lörrach, Germany
- Sequence (P25774 115-331): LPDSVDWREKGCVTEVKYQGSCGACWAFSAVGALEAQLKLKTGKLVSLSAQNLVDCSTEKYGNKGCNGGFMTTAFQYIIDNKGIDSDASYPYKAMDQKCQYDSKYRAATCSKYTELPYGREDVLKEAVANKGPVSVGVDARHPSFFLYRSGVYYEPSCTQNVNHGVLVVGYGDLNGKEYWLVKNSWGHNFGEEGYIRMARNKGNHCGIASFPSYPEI
- PROCEDURE_SUMMARY: Cathepsin S inhibition assay (Cbz-Phe-Arg-AMC)
- Assay type: biochemical
- EXPERIMENTAL_CONTEXT: 20 µM inhibitor, 60 min; read-out: Residual activity @ 20 µM (%) Cat S
Assignment: determine reported remaining activity at 20 µM for the given molecules.

Specify measured remaining activity at 20 µM for O=C(NC(CC1CCCCC1)C(=O)NC(Cc1ccccc1)C(=O)O)Oc1ccc(Cl)cc1 (centres unmarked) .
72%

Identify measured remaining activity at 20 µM corresponding to CC(C)C[C@H](NC(=O)Oc1ccc(Cl)c(NC(=O)Cc2ccccc2)c1)C(=O)N1CCC[C@H]1C(=O)O
93%

Write down remaining activity at 20 µM measured for item CC(C)C[C@H](NC(=O)Oc1ccc(Cl)cc1)C(=O)N1CCC[C@H]1C(=O)O
≥ 98%

Complete the entry with remaining activity at 20 µM for CC(C)CC(NC(=O)Oc1ccc(NC(=O)C(c2ccccc2)c2ccccc2)c(Cl)c1)C(=O)N1CCCC1C(=O)O (centres unmarked)
58%

Consider the molecule CC(C)C[C@H](NC(=O)Oc1ccc(Cl)cc1)C(=O)N[C@@H](Cc1ccccc1)C(=O)O and give its recorded remaining activity at 20 µM.
83%

Entry CC(C)CC(CNC(=O)Oc1ccc(Cl)cc1)C(=O)N1CCC[C@@H]1C(=O)O (some centres unmarked) needs its remaining activity at 20 µM filled in; supply it.
92%

Give the measured remaining activity at 20 µM for CC(C)C[C@H](NC(=O)Oc1ccc(-c2ccccc2)c(NC(=O)Cc2ccccc2)c1)C(=O)N1CCC[C@H]1C(=O)O
89%

Note down remaining activity at 20 µM recorded for CC(C)C[C@@H](C(=O)N1CCC[C@H]1C(=O)O)N(C)C(=O)Oc1ccc(Cl)cc1
≥ 98%

* * *

- TEST_SYSTEM: human cathepsin B (Homo sapiens, UniProt P07858)
- Construct: purchased Calbiochem, Darmstadt, Germany
- PROCEDURE_SUMMARY: Cathepsin B inhibition assay (chromogenic substrate Cbz-Arg-Arg-pNA)
- Format: biochemical
- EXPERIMENTAL_CONTEXT: 20 µM inhibitor, duplicate measurements, product formation after 60 min; read-out: r.a. (%), residual enzymatic activity of cathepsin B
READOUT: remaining activity at 20 µM (%)
Give just the numeric value; % need not be written.

State its remaining activity at 20 µM for this molecule: CC(C)C[C@H](NC(=O)Nc1ccc(Cl)cc1)C(=O)N1CCC[C@H]1C(=O)O
95

Provide measured remaining activity at 20 µM value, entry: CC(C)C[C@H](NC(=O)Nc1ccc(Cl)cc1)C(=O)N[C@@H](Cc1ccccc1)C(=O)O
90

Name the recorded remaining activity at 20 µM of the molecule listed here: CC(C)C[C@H](NC(=O)Oc1ccc(Cl)cc1)C(=O)N[C@@H](Cc1ccccc1)C(=O)OC(C)(C)C
92

Quick one: give measured remaining activity at 20 µM for CC(C)CC(CNC(=O)Oc1ccc(Cl)cc1)C(=O)N1CCC[C@@H]1C(=O)O (stereo partly drawn)
53

Answer with reported remaining activity at 20 µM of CC(C)CC(CNC(=O)Oc1ccc(Cl)cc1)C(=O)N[C@H](Cc1ccccc1)C(=O)O (stereo partly drawn)
11
